# kon per record follows
- measured on: T1, human complement C3b protein (human, UniProt P01024 23-667; P01024 749-1663)
- T1 construct: Purified plasma C3b (Complement Technology, Quidel); Depending on the assay it was captured by an anti-C3d antibody, coated, biotinylated or coupled to beads; also called human C3b; huC3b
- measurement description: SPR (Biacore T100), C3b captured by anti-C3d antibody, IgG as analyte, 1:1 model

binder | kon / M⁻¹ s⁻¹
MOR09610 IgG (antibody, V domains shown, Germlined human IgG1 with leucines 234 and 235 changed to alanines, kappa; also called antibody 9610) VH: EVQLVQSGAEVKKPGSSVKVSCKASGGTFSSYTFSWVRQAPGQGLEWMGNILPIFGDANYAQKFQGRVTITADESTSTAYMELSSLRSEDTAVYYCARNKGAFYYMSTYPSLDVWGQGTLVTVSS VL: DIQMTQSPSSLSASVGDRVTITCRASQNINYYLNWYQQKPGKAPKLLIYDAFSLQSGVPSRFSGSGSGTDFTLTISSLQPEDFATYYCQQSIAVPPFTFGQGTKVEIKR | 820000
MOR09611 IgG (antibody, V domains shown, Germlined human IgG1 with leucines 234 and 235 changed to alanines, kappa; also called antibody 9611) VH: EVQLVESGGGLVQPGGSLRLSCAASGFTFSSYWMTWVRQAPGKGLEWVSSIKIKPDGYAASVKGRFTISRDNSKNTLYLQMNSLRAEDTAVYYCARLFYQYFARMDYWGQGTLVTVSS VL: DIQMTQSPSSLSASVGDRVTITCRASQDISNYLNWYQQKPGKAPKLLIYAASNLQSGVPSRFSGSGSGTDFTLTISSLQPEDFATYYCQQHDTFRPTFGQGTKVEIKR | 7.13e+06
MOR09612 IgG (antibody, V domains shown, Germlined human IgG1 with leucines 234 and 235 changed to alanines, kappa; also called antibody 9612) VH: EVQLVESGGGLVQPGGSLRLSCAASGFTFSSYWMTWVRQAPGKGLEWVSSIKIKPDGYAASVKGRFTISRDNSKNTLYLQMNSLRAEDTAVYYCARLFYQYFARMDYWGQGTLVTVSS VL: DIQMTQSPSSLSASVGDRVTITCRASQDISNYLNWYQQKPGKAPKLLIYAASNLQSGVPSRFSGSGSGTDFTLTISSLQPEDFATYYCQQWDSFSPTFGQGTKVEIKR | 5.05e+06

The measurements presented in this section are drawn from patent US20100291106A1.
